This collection of values is drawn from paper PMC11547735.

Experiment: In vivo absorption experiment on rats
Conditions: rat, rats, oral 1.0 g/kg bw, tail blood at 0, 0.5, 1, 2 h, 5 kDa ultrafiltration, HPLC, read-out: peak plasma concentration
Square brackets hold non-standard residues; d marks the D form. Peptide text beside a SMILES is read from it. Hyp = O=C(O)[C@@H]1C[C@@H](O)CN1
measured-property: Cmax (µM)
Response body: numeric value in µM, unit text excluded.

(Q) Item under review: O=C(O)CC[C@H](NC(=O)CNC(=O)[C@@H]1C[C@@H](O)CN1)C(=O)N[C@@H](Cc1ccccc1)C(=O)NCC(=O)O [OG-5, OGEFG] (H-[Hyp]GEFG-OH) . Reported Cmax?
(A) 77.8

* * *

Assay: In vivo absorption experiment on rats
Conditions: rat, po, 1 g/kg
Square brackets hold non-standard residues; d marks the D form. Peptide text beside a SMILES is read from it. Hyp = O=C(O)[C@@H]1C[C@@H](O)CN1
measured-property: Tmax (h)
Response body: numeric value in h, unit text excluded.

(Q) Item under review: O=C(O)CC[C@H](NC(=O)CNC(=O)[C@@H]1C[C@@H](O)CN1)C(=O)N[C@@H](Cc1ccccc1)C(=O)NCC(=O)O [OG-5, OGEFG] (H-[Hyp]GEFG-OH) . Reported Tmax?
(A) 2

* * *

Experiment: Peptide stability in plasma
Assay type: in vitro ADME
Details: rat plasma (heparinized), 0.5 mM, 37 °C, 8 h incubation, 3 kDa ultrafiltration, HPLC-UV peak area; read-out: peptide remaining intact in plasma
Square brackets hold non-standard residues; d marks the D form. Peptide text beside a SMILES is read from it. Hyp = O=C(O)[C@@H]1C[C@@H](O)CN1
measured-property: remaining at 8 h (%)
Response body: numeric value in %, unit text excluded.

(Q) Item under review: O=C(O)CC[C@H](NC(=O)CNC(=O)[C@@H]1C[C@@H](O)CN1)C(=O)N[C@@H](Cc1ccccc1)C(=O)NCC(=O)O [OG-5, OGEFG] (H-[Hyp]GEFG-OH) . Reported remaining at 8 h?
(A) 78.2
